# credit: patent EP2014310A2

target: T1, human KDR-Fc fusion (R&D Systems #357-KD-050) (human, UniProt P35968 20-764); experiment: fluorescence anisotropy, fluorescein-labeled peptide
T1 construct: bought
T1 sequence (P35968 20-764): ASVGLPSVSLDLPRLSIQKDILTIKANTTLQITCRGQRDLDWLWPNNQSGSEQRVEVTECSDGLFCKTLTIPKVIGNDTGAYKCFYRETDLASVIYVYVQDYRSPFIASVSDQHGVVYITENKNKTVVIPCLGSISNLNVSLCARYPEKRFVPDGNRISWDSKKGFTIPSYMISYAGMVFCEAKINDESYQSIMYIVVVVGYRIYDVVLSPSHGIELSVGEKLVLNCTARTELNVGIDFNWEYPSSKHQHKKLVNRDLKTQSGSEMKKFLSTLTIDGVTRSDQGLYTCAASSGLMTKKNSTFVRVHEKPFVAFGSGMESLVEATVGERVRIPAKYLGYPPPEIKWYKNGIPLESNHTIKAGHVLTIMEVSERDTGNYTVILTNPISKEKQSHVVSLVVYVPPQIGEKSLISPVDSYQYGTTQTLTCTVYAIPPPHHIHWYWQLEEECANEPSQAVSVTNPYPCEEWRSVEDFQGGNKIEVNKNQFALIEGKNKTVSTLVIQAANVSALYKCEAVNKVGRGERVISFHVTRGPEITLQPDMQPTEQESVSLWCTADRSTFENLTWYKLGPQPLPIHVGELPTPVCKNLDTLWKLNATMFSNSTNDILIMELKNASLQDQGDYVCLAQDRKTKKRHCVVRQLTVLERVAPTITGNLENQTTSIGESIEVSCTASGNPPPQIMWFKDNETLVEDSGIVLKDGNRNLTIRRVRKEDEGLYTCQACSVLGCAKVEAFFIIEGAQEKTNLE
pKd: −log10 of the molar value. Bridge positions count the residues as written; N and C are the ends.
Lab note: anything with pKd at or over 6 counts as true; the rest go in false.

For orientation, consider the following solved cases.
Identify whether the reported pKd of the following binder is 6 or greater: Ac-AGANWCEEDWYYCYITGTGGGK-NH2 (disulfide 6-13 (inferred); not fully specified) [SEQ ID NO:281]
true

Is pKd at least 6? Consider Ac-AQRGDYQEQYWHQQLVEQLKLLGGK-NH2 (not fully specified) [SEQ ID NO:308]
true

Tell me whether pKd is at least 6 here: Ac-AQQVQYQFFLGTPRYEQWDLDKGGK-NH2 (not fully specified) [SEQ ID NO:304]
false

Next binder, please.
Given Ac-AGEGWVECFANTGACFTYPRGTGGGK-NH2 (disulfide 8-15 (inferred); not fully specified) [SEQ ID NO:292] , state whether its pKd is at least 6.
false
